System: HT-1080.hFAP and HT-1080.wt xenografts
test.description: Quantitative biodistribution in HT-1080.hFAP and HT-1080.wt xenografted mice
Assay type: in vivo
condition.details: 4 h p.i., HT-1080.hFAP and HT-1080.wt xenografts
property: Biodistribution Stomach (% IA/g)

A = N#C[C@@H]1CC(F)(F)CN1C(=O)CNC(=O)c1ccnc2ccc(NC(=O)CCC(=O)N3CCN(C(=O)CC[C@H](C(=O)O)N4CCN5CCN(CC4)CC(=O)[O][61Cu][O]C(=O)C5)CC3)cc12 [[^61Cu]Cu-NODAGA-F3]
B = CN(C(=O)CCC(=O)N1CCN(C(=O)CC[C@H](C(=O)O)N2CCN3CCN(CC2)CC(=O)[O][61Cu][O]C(=O)C3)CC1)c1ccc2nccc(C(=O)NCC(=O)N3CC(F)(F)C[C@H]3C#N)c2c1 [[^61Cu]Cu-NODAGA-F4]
// returns A or B , whichever has the lower Biodistribution Stomach Identify your selection by its label.
B
(B: 0.2 % IA/g, A: 0.5 % IA/g)

Every entry's value here was drawn from patent US20240173440A1.
